System: ISC-enriched organoids
Assay Text: Primary screen, 384-well 2.5-D organoid differentiation (ENR+CD, 6 days, Target Selective Inhibitor Library, vs whole-plate median): ATP (CellTiter-Glo 3D, CTG)
Stated Conditions: Dose 2.00 uM; primary screen
So basically: is Z.CTG (standard z score) under 0.1? Then met. Not under? Then not met.

Molecule	Label
Cc1nn(-c2ccccc2)c(C)c1/C=N/N1CCN(Cc2ccccc2)CC1 [SANT-1]	not met
COc1cc(Br)c(Nc2nc(-c3c(C)nc4ncccn34)cs2)c(Br)c1 [PTC-209]	met
CCOC(=O)c1ccc(N2NC(=O)/C(=C/c3ccc([N+](=O)[O-])o3)C2=O)cc1 [PYR-41]	not met
NC(=O)c1ccc(-c2nc(-c3ccccn3)c(-c3ccc4c(c3)OCO4)[nH]2)cc1 [SB431542]	not met
O=C(NCc1cccc(O)c1)Nc1nc(-c2ccncc2)cs1 [RKI-1447]	met
COc1ccc(C(=O)Nc2sc3c(c2C(N)=O)CCCC3)cc1OC [TCS 359]	not met
O=[N+]([O-])c1ccc2c(c1)S(=O)(=O)C=C2 [Stattic]	met
O=C(NC(Cc1cc(=O)[nH]c2ccccc12)C(=O)O)c1ccc(Cl)cc1 (stereo not drawn) [Rebamipide]	met
O=C(/C=C/c1ccccc1)NC(NC(=S)Nc1ccc(Cl)cc1)C(Cl)(Cl)Cl (stereo not drawn) [Sal003]	not met
CNC(=C[N+](=O)[O-])NCCSCc1ccc(CN(C)C)o1 [Ranitidine]	met
CCC(=O)NCC[C@@H]1CCc2ccc3c(c21)CCO3 [Ramelteon]	met
COc1c(C)c(C(=O)c2ccc(N)c(C(=O)[O-])c2)n2ccccc12.[Na+] [SSR128129E]	not met

----------
System: ISC-enriched organoids
Assay Text: Primary screen, 384-well 2.5-D organoid differentiation (ENR+CD, 6 days, Target Selective Inhibitor Library, vs whole-plate median): ATP (CellTiter-Glo 3D, CTG)
Stated Conditions: primary screen, dose 0.08 uM, ENR+CD 6 days, FC vs plate median

Compound	Readout Unit	Dose.FC.CTG
CC(C)CCN1c2nc(Nc3cc(F)c(O)c(F)c3)ncc2N(C)C(=O)C1C (stereo not drawn)	log 2 fold change	0.186
N#Cc1c(O)c2c(-c3ccc(-c4ccccc4O)cc3)csc2[nH]c1=O	log 2 fold change	−0.074
CC1(C)CCC(c2ccc(Cl)cc2)=C(CN2CCN(c3ccc(C(=O)NS(=O)(=O)c4ccc(N[C@H](CCN5CCOCC5)CSc5ccccc5)c(S(=O)(=O)C(F)(F)F)c4)cc3)CC2)C1	log 2 fold change	−0.212

----------
Test system: ISC-enriched organoids
Assay Text: Primary screen, 384-well 2.5-D organoid differentiation (ENR+CD, 6 days, Target Selective Inhibitor Library, vs whole-plate median): ATP (CellTiter-Glo 3D, CTG)
Stated Conditions: primary screen, dose 0.08 uM, standard z score of FC
Structures can show the parent of a compound that is named as a salt.
Use -0.03 as the dividing line for Z.CTG, with the line itself on the True side and lower values as False.

Compound	Label
Cc1ccccc1C(C(=O)NC1CCCCC1)N(C(=O)Cn1ccnc1C)c1cccc(F)c1 (centres unmarked)	True
CN(C)Cc1ccc(-c2nc3cccc4c3n2CCNC4=O)cc1	True
CC(C)NCC(O)COc1ccc(COCCOC(C)C)cc1 (centres unmarked) [Bisoprolol fumarate]	False
C[C@@H](O[C@H]1OCCN(Cc2n[nH]c(=O)[nH]2)[C@H]1c1ccc(F)cc1)c1cc(C(F)(F)F)cc(C(F)(F)F)c1 [Aprepitant]	True
COc1cc(Nc2c(C#N)cnc3cc(OCCCN4CCN(C)CC4)c(OC)cc23)c(Cl)cc1Cl [Bosutinib (SKI-606), Bosutinib]	True
COc1ccc(-n2nc(C(N)=O)c3c2C(=O)N(c2ccc(N4CCCCC4=O)cc2)CC3)cc1	False
COc1cc(N2CCC(N3CCN(C)CC3)CC2)ccc1Nc1ncc(Cl)c(Nc2ccccc2P(C)(C)=O)n1	False
O=C(O)C(Cc1ccccc1[N+](=O)[O-])=NNc1nc(-c2ccc(Cl)c(Cl)c2)cs1 (mixture of isomers)	False

----------
Test system: ISC-enriched organoids
Assay Text: Primary screen, 384-well 2.5-D organoid differentiation (ENR+CD, 6 days): basal lysozyme secretion (LYZ.NS)
Type: cell-based, murine
Stated Conditions: strictly standardized mean difference; primary screen; 3rd of the 4 dose lines of the treatment (dose not given)
From the text: High-throughput screening.
Counter-ions that a name gives are not always drawn.
In this section we review reported SSMD.LYZ.NS values for a set of compounds.
Endpoint: SSMD.LYZ.NS

Compound	Assay System	Value Measured
COC(=O)CCSCc1ccc(-c2onc(C)c2NC(=O)OC(C)c2ccccc2Cl)cc1 (centres unmarked) [Ki16198]	ISC-enriched organoids	0.211
CCc1c2c(nc3ccc(OC(=O)N4CCC(N5CCCCC5)CC4)cc13)-c1cc3c(c(=O)n1C2)COC(=O)[C@]3(O)CC [Irinotecan]	ISC-enriched organoids	−1.415
Cn1cc(/C=C2\C(=O)Nc3cccnc32)c2ccccc21 [GW441756]	ISC-enriched organoids	1.215
CC12CC3CC(C)(C1)CC(N)(C3)C2 [Memantine HCl]	ISC-enriched organoids	0.745
CN(Cc1cnc2nc(N)nc(N)c2n1)c1ccc(C(=O)N[C@@H](CCC(=O)O)C(=O)O)cc1 [Methotrexate]	ISC-enriched organoids	−1.130
O=C(Nc1ccccc1)N1CCN(c2nc(-c3ccccc3)ns2)CC1 [JNJ-1661010]	ISC-enriched organoids	0.332
CCc1c2c(nc3ccc(OC(=O)N4CCC(N5CCCCC5)CC4)cc13)-c1cc3c(c(=O)n1C2)COC(=O)[C@]3(O)CC [Irinotecan HCl Trihydrate]	ISC-enriched organoids	−1.832
C#Cc1cccc(Nc2ncnc3cc4c(cc23)OCCOCCOCCO4)c1 [Icotinib]	ISC-enriched organoids	−1.321

----------
In this section we review reported Z.CTG values for a set of molecules.
System: ISC-enriched organoids
Assay Text: Primary screen, 384-well 2.5-D organoid differentiation (ENR+CD, 6 days, Target Selective Inhibitor Library, vs whole-plate median): ATP (CellTiter-Glo 3D, CTG)
Stated Conditions: Dose 2.00 uM; standard z score of FC
Counter-ions that a name gives are not always drawn.

Molecule	Assay System	Z.CTG
CCCC(C)NC(=O)c1ccc(Cl)c(Cl)c1 (stereo not shown)	ISC-enriched organoids	−0.141
C[C@@H]1C(=O)O[C@H]2C[C@@]34[C@H]5C[C@@H](C(C)(C)C)[C@]36[C@@H](OC(=O)[C@@H]6O)O[C@@]4(C(=O)O5)[C@]21O [Ginkgolide A]	ISC-enriched organoids	0.095
COCCOc1ccc2c(c1)ncn2-c1ccc2cccc(N3CCC(N)CC3)c2n1	ISC-enriched organoids	0.018
CCc1c(C(=O)NCCc2ccc(N3CCCCC3)cc2)[nH]c2ccc(Cl)cc12	ISC-enriched organoids	0.865
COc1ccccc1S(=O)(=O)Nc1ccc2c(c1)CN(C)C(=O)N2	ISC-enriched organoids	0.770
C[C@@H](NCCCc1cccc(C(F)(F)F)c1)c1cccc2ccccc12 [Cinacalcet HCl]	ISC-enriched organoids	−0.028
Nc1nc(CC(=O)Nc2ccc(CCNC[C@H](O)c3ccccc3)cc2)cs1	ISC-enriched organoids	0.046

----------
Tested on: ISC-enriched organoids
Assay Text: Primary screen, 384-well 2.5-D organoid differentiation (ENR+CD, 6 days, Target Selective Inhibitor Library, vs whole-plate median): ATP (CellTiter-Glo 3D, CTG)
Stated Conditions: Dose 0.08 uM; primary screen, FC vs plate median
Endpoint: Dose.FC.CTG (log 2 fold change)

Compound	Endpoint	Value Measured
Cc1cc(Nc2cc(CN3CCOCC3)c3nc(C)c(Cc4ccc(Cl)cc4F)n3n2)n[nH]1	Dose.FC.CTG	0.108
CC(=O)O[C@H]1C[C@@H]2CC[C@@H]3[C@H](CC[C@@]4(C)[C@H]3C[C@H]([N+]3(C)CCCCC3)[C@@H]4OC(C)=O)[C@@]2(C)C[C@@H]1[N+]1(C)CCCCC1.[Br-].[Br-] [Pancuronium dibromide]	Dose.FC.CTG	0.217
CCCCCCCCCCCCCCCCn1cc[n+](Cc2ccccc2)c1C.[I-]	Dose.FC.CTG	−0.347
C/C(=N\NC(=S)N1CCC1)c1ccccn1	Dose.FC.CTG	0.132

----------
Tested on: ISC-enriched organoids
Assay Text: Primary screen, 384-well 2.5-D organoid differentiation (ENR+CD, 6 days, Target Selective Inhibitor Library, vs whole-plate median): ATP (CellTiter-Glo 3D, CTG)
Stated Conditions: primary screen, dose 0.40 uM, ENR+CD 6 days, FC vs plate median
In this section we review reported Dose.FC.CTG values for a set of compounds.

Compound	Assay System	Dose.FC.CTG [log 2 fold change]
CN(C)Cc1ccc(-c2nc3cccc4c3n2CCNC4=O)cc1	ISC-enriched organoids	−0.069
O=C1NC(=O)/C(=C/c2ccc(-c3ccc(F)cc3O)o2)S1	ISC-enriched organoids	−0.074
O=C1C(=O)N(Cc2ccc(Cl)c(Cl)c2)c2ccccc21	ISC-enriched organoids	0.262
C[C@H](Oc1cc(-c2cnn(C3CCNCC3)c2)cnc1N)c1c(Cl)ccc(F)c1Cl [(S)-crizotinib]	ISC-enriched organoids	0.054
CC(C)CCN1c2nc(Nc3cc(F)c(O)c(F)c3)ncc2N(C)C(=O)C1C (centres unmarked)	ISC-enriched organoids	0.029
